Entry source: patent US20260242735A1

Target: human CD33 T253A (human, UniProt P20138 18-364)
Sequence (P20138 18-364 T253A limits assumed): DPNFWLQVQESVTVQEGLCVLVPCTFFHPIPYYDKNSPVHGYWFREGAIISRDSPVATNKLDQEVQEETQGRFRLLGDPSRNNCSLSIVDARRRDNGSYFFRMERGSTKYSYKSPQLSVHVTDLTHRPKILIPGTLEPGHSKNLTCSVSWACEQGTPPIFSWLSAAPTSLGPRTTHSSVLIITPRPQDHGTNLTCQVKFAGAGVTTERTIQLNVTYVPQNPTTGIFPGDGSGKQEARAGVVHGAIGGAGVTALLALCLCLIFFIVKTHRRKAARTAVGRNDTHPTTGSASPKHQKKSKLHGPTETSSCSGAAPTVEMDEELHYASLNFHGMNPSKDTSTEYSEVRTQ
Experiment: alanine scan, flow cytometry, HEK293-T;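 also: antibody binding to each alanine-substituted CD33 mutant expressed transiently in HEK293-T, read as fluorescence minus background, mean of duplicates, relative to wild-type CD33 set as 100%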
observable: Mean % WT Binding
Please make sure the unit comes right after the number.

Worked cases, Mean % WT Binding given:
- binder: "Refmab #1 (antibody, V domains shown, The alanine scan used IgG or Fab; also called hP67.6) VH: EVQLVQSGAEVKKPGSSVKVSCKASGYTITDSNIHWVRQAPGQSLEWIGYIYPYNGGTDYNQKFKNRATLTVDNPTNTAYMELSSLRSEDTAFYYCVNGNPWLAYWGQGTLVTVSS VL: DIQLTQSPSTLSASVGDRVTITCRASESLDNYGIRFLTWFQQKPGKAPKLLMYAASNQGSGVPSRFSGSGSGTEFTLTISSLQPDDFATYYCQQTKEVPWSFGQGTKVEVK"
  Mean % WT Binding: "94.5 % WT binding"
- binder: "Refmab #2 (antibody, V domains shown, The alanine scan used IgG or Fab) VH: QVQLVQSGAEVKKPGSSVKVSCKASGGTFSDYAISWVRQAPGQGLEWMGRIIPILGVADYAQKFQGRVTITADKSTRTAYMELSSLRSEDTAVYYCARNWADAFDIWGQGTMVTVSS VL: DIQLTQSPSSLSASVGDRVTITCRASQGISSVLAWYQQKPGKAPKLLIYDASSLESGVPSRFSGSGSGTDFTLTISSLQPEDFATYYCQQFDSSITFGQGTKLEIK"
  Mean % WT Binding: "104 % WT binding"

Let's switch to this binder now.
Any idea what its Mean % WT Binding is? The binder is Refmab #3 (antibody, V domains shown, The alanine scan used IgG or Fab) VH: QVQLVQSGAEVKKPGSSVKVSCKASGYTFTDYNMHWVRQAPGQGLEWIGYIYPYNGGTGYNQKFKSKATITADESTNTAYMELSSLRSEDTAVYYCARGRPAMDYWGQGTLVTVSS VL: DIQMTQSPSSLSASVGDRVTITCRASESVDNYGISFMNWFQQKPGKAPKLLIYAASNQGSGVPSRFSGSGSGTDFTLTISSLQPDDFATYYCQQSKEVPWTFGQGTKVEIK
98.1 % WT binding
